- System: SW-620 colon
- protocol.notes: NCI-60 one-dose screen, 48 h (100 = growth as untreated, 0 = no growth, -100 = all killed)
- test.parameters: 10 µM unless noted
About 83,000 compounds went through this panel and 20% of them were active in at least one assay; those are over-represented in the sample as a whole. The source made the active and inactive calls. The calls were made as follows: active = growth percent below 10; inactive = the rest.
test.readout: growth

Cc1c(C2=CCCCC2)c2ccccn2c1C(=O)c1cccc(S(=O)(=O)N2CCOCC2)c1 : 98.2% (inactive)
S=c1[nH]cccc1-c1nnc2n1Nc1nc3ccccc3cc1CS2 : 99.4% (inactive)
COc1ccc(-c2c(-c3ccccc3)noc2N)cc1OC : 118% (inactive)
O=C1Nc2c(ccc(Cl)c2Cl)/C1=C/c1ccc([N+](=O)[O-])cc1 : 100% (inactive)

Which growth value is on record for `CCc1nc(C)cn1C(=O)OCc1nc2nc(Cl)nc(N3CCOCC3)c2[nH]1` ?
-47.9% (active)

Value lookup for growth; key = `O=C1C(=O)c2c(nc3ncccn23)-c2ccccc21`
-60.6% (active)

What growth value was documented for this compound, COc1ccc(C(O)c2cc3c(N)c(C(=O)Nc4ccc(Br)cc4)sc3nc2C)cc1 (centres undefined) ?
23.7% (inactive)

State the recorded growth for this entry: `O=c1[nH]nc(-c2ccc(Cl)cc2)cc1Cc1cccc([N+](=O)[O-])c1`
101% (inactive)

Param item = `COC(=O)N[C@H]1CCc2cc(OC)c(OC)c(OC)c2-c2ccc(SC)c(=O)cc21` ; retrieve measured growth.
16.9% (inactive)

Which growth reading was recorded for the compound `COc1cccc(CCC(=O)c2cc3c(N)c(C(=O)Nc4ccccc4)sc3nc2C)c1` ?
22.2% (inactive)

For the compound COC(=O)C1NC(=S)N(c2ccc(Cl)cc2)C1/C=C/c1ccccc1 (centres undefined) , what growth is on record?
108% (inactive)

What value of measured growth is listed for `CCOC(=O)c1cnc2c(cnn2CC)c1NN=C(C)C` ?
104% (inactive)

----------
- Test system: UACC-62 melanoma
- protocol.notes: NCI-60 one-dose screen, 48 h (100 = growth as untreated, 0 = no growth, -100 = all killed)
- test.parameters: 10 µM unless noted
The panel holds about 83,000 compounds, 20% with a hit somewhere; the sample as a whole holds those more often.
Class field: derived from growth; ranges bottom bin: < 40%; middle bin: ≥ 40% and < 90%; top bin: ≥ 90%

Look over these answered cases.
COc1ccc(-c2cnnc3c(-c4cccc(C(F)(F)F)c4)cnn23)cc1 : middle bin
NC(=O)c1cccc(-c2cc(C(N)=O)ccc2Cl)c1 : bottom bin
COc1ccc(/C=C/c2n[nH]c3ccc(N4CCOC4=O)cc23)cc1 : bottom bin
COc1ccc(-c2c[nH]c(C(=O)O)c2-c2cc(OC)c3c(c2OC)OCO3)cc1 : top bin
COc1ccc(-c2nc(N/N=C/c3cccc(Br)c3)nc(N3CCOCC3)c2C#N)cc1 : middle bin
COc1ccc(C(=O)c2cc3c(N)c(C(=O)Nc4cccc(Cl)c4C)sc3nc2C)cc1 : bottom bin
CCCCCN1C=C/C(=C\C(=O)N(C)c2ccc(Br)cc2)c2ccccc21 : top bin
CN1CCN(CC#CCNC(=O)[C@]23CCC(C)(C)C[C@H]2C2=CC[C@@H]4[C@@]5(C)Cc6c([nH]c7ccccc67)C(C)(C)[C@@H]5CC[C@@]4(C)[C@]2(C)CC3)CC1 : top bin

Hi, small favor: classify COc1ccccc1C(C[N+](=O)[O-])c1c(-c2ccccc2)[nH]c2cc(C)ccc12 (centres undefined) by its growth when you get a moment.
middle bin

Into which category would you place `COc1ccc(CNC(=O)COc2ccc(/C=N/Nc3nc4ccccc4s3)cc2)cc1` ?
bottom bin

Class label required: `Cc1cccc(Oc2ccc(Nc3ncnc4ccc(NC(=O)CN(C)C)cc34)cc2Cl)c1`
top bin

Class? Entry: `CN(C)C(=O)c1cc2cnc(Nc3ccc(-c4csc5c(=O)cc(N6CCOCC6)oc45)cc3)nc2n1C1CCCC1`
bottom bin

Form field 'band' for `O=C(Nc1nc(-c2ccccc2Cl)cs1)c1cc(-c2ccccc2)nc2ccc(Cl)cc12`
middle bin

Bin this entry: `CC1(C)[C@H](O)CC[C@]2(C)[C@@H]1CC[C@@]13C[C@@H](CC[C@H]12)[C@@](O)(CO)C3`
top bin
